tested on: 323965-272-R-J2-PDC complex spheroid growth, % test/control; experiment: Anticancer human tumor 323965-272-R-J2-PDC patient-derived pancreatic carcinoma cell line growth inhibition [Asc]; conditions: second compound 0.1 µM; first compound 0.316 µM; hits give low values;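 also: compound exposure lasted 7 days starting three days after spheroid seeding; 100% = DMSO vehicle control wells with viability set relative to vehicle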
Measured Metric: viability, T/C (%)
Numbers only here, please. The scale is %.

Some solved cases for reference:
>>> measured_result("O=C(c1cc(Cc2n[nH]c(=O)c3ccccc23)ccc1F)N1CCN(C(=O)C2CC2)CC1 + CNC(C)C(=O)NC1CN(S(=O)(=O)c2cccc(S(=O)(=O)N3CCC4CCC(C(=O)NC(c5ccccc5)c5ccccc5)N4C(=O)C(NC(=O)C(C)NC)C3)c2)CCC2CCC(C(=O)NC(c3ccccc3)c3ccccc3)N2C1=O")
89.7
>>> measured_result("C=C(F)C(=O)N1CCN(c2nc(OCC3CCCN3C)nc3c2CCN(c2cccc4cccc(Cl)c24)C3)CC1CC#N (stereo not drawn) + Cc1c(S(C)(=O)=O)c(-c2cc(F)cc(N3CCN(c4ccc(NS(=O)(=O)c5ccc(NC(CCN6CCC(C(=O)OCCCP(=O)(O)O)CC6)CSc6ccccc6)c(S(=O)(=O)C(F)(F)F)c5)cc4)CC3)c2)c(-c2ccc(Cl)cc2)n1C(C)C")
60.1

// moving on: another record for viability, T/C
What measured viability, T/C is associated with CCN1CCN(Cc2ccc(Nc3ncc(F)c(-c4cc(F)c5nc(C)n(C(C)C)c5c4)n3)nc2)CC1 + CNC(C)C(=O)NC1CN(S(=O)(=O)c2cccc(S(=O)(=O)N3CCC4CCC(C(=O)NC(c5ccccc5)c5ccccc5)N4C(=O)C(NC(=O)C(C)NC)C3)c2)CCC2CCC(C(=O)NC(c3ccccc3)c3ccccc3)N2C1=O on 323965-272-R-J2-PDC complex spheroid growth, % test/control?
78.4

Data provenance is PubChem BioAssay AID1963425.
